Molecular target: T1, monkey CD22 protein (ACROBiosystems, catalog number SI2-R52Ha) (monkey, UniProt F6W485 20-688)
T1 construct: commercial protein; also called monkey CD22-ECD; monkey CD22-ECD-His
T1 sequence: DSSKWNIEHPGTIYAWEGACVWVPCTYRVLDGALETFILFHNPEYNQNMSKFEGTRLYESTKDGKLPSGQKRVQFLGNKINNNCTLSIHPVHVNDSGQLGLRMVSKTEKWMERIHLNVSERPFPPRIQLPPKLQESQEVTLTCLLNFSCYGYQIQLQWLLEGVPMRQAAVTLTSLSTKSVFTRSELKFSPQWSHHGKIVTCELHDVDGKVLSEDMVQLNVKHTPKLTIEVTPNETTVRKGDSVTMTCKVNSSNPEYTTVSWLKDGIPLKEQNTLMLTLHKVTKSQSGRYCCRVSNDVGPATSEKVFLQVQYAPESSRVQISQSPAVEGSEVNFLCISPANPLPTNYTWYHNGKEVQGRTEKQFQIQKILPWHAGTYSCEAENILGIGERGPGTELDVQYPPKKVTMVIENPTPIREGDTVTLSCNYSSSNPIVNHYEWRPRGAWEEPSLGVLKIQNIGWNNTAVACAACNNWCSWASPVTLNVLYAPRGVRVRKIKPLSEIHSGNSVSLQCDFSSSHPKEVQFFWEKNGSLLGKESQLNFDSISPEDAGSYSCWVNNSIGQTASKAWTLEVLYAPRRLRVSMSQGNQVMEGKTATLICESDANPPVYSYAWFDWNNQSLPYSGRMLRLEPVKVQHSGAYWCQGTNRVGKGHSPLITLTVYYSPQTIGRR
Assay: ELISA, coated monkey CD22 protein, antibody 0.1 nM
Measured OD450 by item
Your answer is read as OD450, so omit the unit and give the number.

Examples with their reported OD450 follow.
Recorded OD450 of F1.216.2 (antibody, human IgG1, kappa, V domains shown, human-murine chimeric IgG1 kappa) VH: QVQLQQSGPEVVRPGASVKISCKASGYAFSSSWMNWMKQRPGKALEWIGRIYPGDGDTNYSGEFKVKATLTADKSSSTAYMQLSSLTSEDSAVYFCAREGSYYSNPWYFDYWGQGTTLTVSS VL: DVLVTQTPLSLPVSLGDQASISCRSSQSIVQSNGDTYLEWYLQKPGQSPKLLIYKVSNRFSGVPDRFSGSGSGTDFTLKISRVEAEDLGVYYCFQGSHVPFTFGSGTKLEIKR , please.
2.24

Recorded OD450 of m971-hIgG1 (antibody, V domains shown, control anti-CD22 antibody; variable regions from US 8,591,889 on human IgG1 constant regions) VH: QVQLQQSGPGLVKPSQTLSLTCAISGDSVSSNSAAWNWIRQSPSRGLEWLGRTYYRSKWYNDYAVSVKSRITINPDTSKNQFSLQLNSVTPEDTAVYYCAREVTGDLEDAFDIWGQGTMVTVSS VL: DIQMTQSPSSLSASVGDRVTITCRASQTIWSYLNWYQQRPGKAPNLLIYAASSLQSGVPSRFSGRGSGTDFTLTISSLQAEDFATYYCQQSYSIPQTFGQGTKLEIKR , please.
0.07

***
Recorded OD450 of F2.70.2 (antibody, human IgG1, lambda, V domains shown, human-murine chimeric IgG1 lambda) VH: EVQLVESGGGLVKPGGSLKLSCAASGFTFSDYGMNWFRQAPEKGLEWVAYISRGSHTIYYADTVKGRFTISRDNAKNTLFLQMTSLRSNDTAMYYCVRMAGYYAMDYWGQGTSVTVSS VL: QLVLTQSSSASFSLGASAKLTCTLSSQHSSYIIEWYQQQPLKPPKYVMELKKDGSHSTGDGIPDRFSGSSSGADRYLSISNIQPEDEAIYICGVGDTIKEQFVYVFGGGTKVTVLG , please.
0.06

Origin of the recorded values: patent US20240084003A1
